test: Inhibition of RabGGTase using [3H]GGPP as substrate after 1 hr by scintillation proximity assay
Test Readout: IC50 (µM)
Quick note: give the figure in µM, leave out the unit.

// COc1ccc(S(=O)(=O)N2Cc3cc(C#N)ccc3N(Cc3cncn3C)C[C@H]2Cc2ccc(OS(=O)(=O)C(F)(F)F)cc2)cc1 : IC50 value = 1.5

So, COc1ccc(S(=O)(=O)N2Cc3cc(C(=O)NCc4ccccc4)ccc3N(Cc3cncn3C)C[C@H]2Cc2ccc(O)cc2)cc1 ? Its IC50 was 0.019

# molecule CCCCCCNC(=O)Oc1ccc(C[C@@H]2CN(Cc3cncn3C)c3ccc(C#N)cc3CN2S(=O)(=O)c2ccc(OC)cc2)cc1 ; its IC50 = 0.0155

Sample COc1ccc(S(=O)(=O)N2Cc3cc(C#N)ccc3N(Cc3cncn3C)C[C@H]2Cc2ccc(OCc3ccccc3)cc2)cc1 ; IC50 observed: 0.181

----------
test: Inhibition of rat RabGGTase using [3H]GGPP as substrate after 30 mins by scintillation counter
Test Readout: pIC50
Kindly note that pIC50 refers to -log10 of the concentration in mol/L and answer with the value alone.

Consider COc1ccc(S(=O)(=O)N2Cc3cc(C#N)ccc3N(Cc3cncn3C)C[C@H]2Cc2ccccc2)cc1 . Its measured pIC50 is 7.68
